Taken from paper PMC12044245.

# Test Target: NA (neuraminidase) of A/Yamagata/336/2023 (Influenza A virus)
Metric: IC50 (nM)
Write down the numeric answer in nM and omit the unit.

[ask] Look up IC50: `CCC(CC)[C@H](NC(C)=O)[C@@H]1[C@H](O)[C@@H](C(=O)O)C[C@H]1N=C(N)N`
[reply] 0.09

---

# Test Target: NA (neuraminidase) of A/Yamagata/292/2023 (Influenza A virus)
Metric: IC50 (nM)
Write down the numeric answer in nM and omit the unit.

[ask] Give NA (neuraminidase) of A/Yamagata/292/2023 (Influenza A virus) IC50 for `CCC(CC)[C@H](NC(C)=O)[C@@H]1[C@H](O)[C@@H](C(=O)O)C[C@H]1N=C(N)N`
[reply] 0.09

---

# Test Target: NA (neuraminidase) of A/Yamagata/122/2023 (Influenza A virus, UniProt C3W5S3)
# Assay type: biochemical
Metric: IC50 (pM)
Write down the numeric answer in pM and omit the unit.

[ask] Look up IC50: CCC(CC)[C@H](NC(C)=O)[C@@H]1[C@H](O)[C@@H](C(=O)O)C[C@H]1N=C(N)N [Peramivir, peramivir]
[reply] 80

---

# Test Target: NA (neuraminidase) of A/Yamagata/312/2023 (Influenza A virus, UniProt C3W5S3)
Metric: IC50
Answer shape: numeric part, then the unit.

[ask] Look up IC50: CCC(CC)[C@H](NC(C)=O)[C@@H]1[C@H](O)[C@@H](C(=O)O)C[C@H]1N=C(N)N [Peramivir, peramivir]
[reply] 0.11 nM
